Reported Degradation rates of CDK13 at 0.3 μM values follow for various compounds
Target: CDK13 (Homo sapiens)
Construct: Immunoblotting of CDK12 and CDK13 in MDA-MB-231 cells treated with increasing concentrations of ZLC491 for 15 h; endogenous in cells; host or cells: MDA-MB-231
Experiment: CDK13 degradation in MDA-MB-231 cells by immunoblotting
Type: cell-based
Settings: supplementary CSV; 0.3 μM
Protocol: The degradation efficiency of the new molecules was assessed by immunoblotting after treatment with the compounds at 0.3 μM in MD-MBA-231 cells for 15 h. To further characterize the compound, we determined the half-degradation concentration (DC50) values of ZLC491 in MDA-MB-231 cells. […] We also treated MDA-MB-231 cells with 1 μM ZLC491 at various time points. (A) Immunoblotting of CDK12 and CDK13 in MDA-MB-231 cells treated with increasing concentrations of ZLC491 for 15 h (left). […]
property: Degradation rates of CDK13 at 0.3 μM (%)

>  <compound>
N#Cc1ccc(N[C@H]2CC[C@H](N(C(=O)NCc3ccccc3)c3ccc(N4CCN(C(=O)C5CCN(c6ccc7c(c6)C(=O)N(C6CCC(=O)NC6=O)C7=O)CC5)CC4)cc3)CC2)nc1 (some centres unmarked)

>  <measurement>
51

$$$$
>  <compound>
N#Cc1ccc(N[C@H]2CC[C@H](N(C(=O)NCc3ccccc3)c3ccc(N4CCC(CN5CCN(c6ccc7c(c6)C(=O)N(C6CCC(=O)NC6=O)C7=O)CC5)CC4)cc3)CC2)nc1 (some centres unmarked)

>  <measurement>
71

$$$$
>  <compound>
N#Cc1ccc(N[C@H]2CC[C@H](N(C(=O)NCc3ccccc3)c3ccc(N4CCC5(CC4)CN(c4ccc6c(c4)C(=O)N(C4CCC(=O)NC4=O)C6=O)C5)cc3)CC2)nc1 (some centres unmarked)

>  <measurement>
85

$$$$
>  <compound>
N#Cc1ccc(N[C@H]2CC[C@H](N(C(=O)NCc3ccccc3)c3ccc(N4CCN(CC5CN(c6ccc7c(c6)C(=O)N(C6CCC(=O)NC6=O)C7=O)C5)CC4)cc3)CC2)nc1 (some centres unmarked)

>  <measurement>
71

$$$$
>  <compound>
N#Cc1ccc(N[C@H]2CC[C@H](N(C(=O)NCc3ccccc3)c3ccc(N4CCC(CN5CCN(c6ccc7c(c6)C(=O)N(C6CCC(=O)NC6=O)C7=O)CC5)C4)cc3)CC2)nc1 (some centres unmarked)

>  <measurement>
16

$$$$

---

Biological target: CDK12 (Homo sapiens)
Experiment: CDK12 degradation in MDA-MB-231 cells by immunoblotting
Type: cell-based
Parameters: Immunoblotting of CDK12 and CDK13 in MDA-MB-231 cells treated with increasing concentrations of ZLC491 for 15 h; endogenous in cells; host or cells: MDA-MB-231
Conditions: MDA-MB-231 cells, 0.3 μM, 15 h, immunoblotting, normalized against α-tubulin
Reported Protein Degradation (%DMSO control, 0.3 μM) CDK12 values follow for various molecules
property: Protein Degradation (%DMSO control, 0.3 μM) CDK12 (%)

>  <molecule>
N#Cc1ccc(N[C@H]2CC[C@H](N(C(=O)NCc3ccccc3)c3ccc(N4CCN(C[C@H]5CCN(c6ccc7c(c6)C(=O)N(C6CCC(=O)NC6=O)C7=O)C5)CC4)cc3)CC2)nc1 (stereo partly drawn)

>  <measurement>
59

$$$$
>  <molecule>
N#Cc1ccc(N[C@H]2CC[C@H](N(C(=O)NCc3ccccc3)c3ccc(N4CCN(C(=O)CNc5ccc6c(c5)C(=O)N(C5CCC(=O)NC5=O)C6=O)CC4)cc3)CC2)nc1 (stereo partly drawn)

>  <measurement>
75

$$$$
>  <molecule>
N#Cc1ccc(N[C@H]2CC[C@H](N(C(=O)NCc3ccccc3)c3ccc(N4CCC5(CC4)CN(c4ccc6c(c4)C(=O)N(C4CCC(=O)NC4=O)C6=O)C5)cc3)CC2)nc1 (stereo partly drawn)

>  <measurement>
63

$$$$

---

Test: Pharmacokinetics in rats
Assay type: in vivo, rat
Conditions: male, Sprague-Dawley, rat, plasma, po, p.o. 10 mg/kg
property: AUC(0-t) at 24 h (ng·h/mL)

>  <molecule>
N#Cc1ccc(N[C@H]2CC[C@H](N(C(=O)NCc3ccccc3)c3ccc(N4CCN(C5CCN(c6cc7c(cc6F)C(=O)N(C6CCC(=O)NC6=O)C7=O)CC5)CC4)cc3)CC2)nc1 (stereo partly shown) [ZLC491]

>  <property>
AUC(0-t) at 24 h

>  <unit.label>
ng·h/mL

>  <measurement>
12800

$$$$

---

Molecular target: CDK12 (Homo sapiens, UniProt Q9NYV4)
Sequence (Q9NYV4 whole entry): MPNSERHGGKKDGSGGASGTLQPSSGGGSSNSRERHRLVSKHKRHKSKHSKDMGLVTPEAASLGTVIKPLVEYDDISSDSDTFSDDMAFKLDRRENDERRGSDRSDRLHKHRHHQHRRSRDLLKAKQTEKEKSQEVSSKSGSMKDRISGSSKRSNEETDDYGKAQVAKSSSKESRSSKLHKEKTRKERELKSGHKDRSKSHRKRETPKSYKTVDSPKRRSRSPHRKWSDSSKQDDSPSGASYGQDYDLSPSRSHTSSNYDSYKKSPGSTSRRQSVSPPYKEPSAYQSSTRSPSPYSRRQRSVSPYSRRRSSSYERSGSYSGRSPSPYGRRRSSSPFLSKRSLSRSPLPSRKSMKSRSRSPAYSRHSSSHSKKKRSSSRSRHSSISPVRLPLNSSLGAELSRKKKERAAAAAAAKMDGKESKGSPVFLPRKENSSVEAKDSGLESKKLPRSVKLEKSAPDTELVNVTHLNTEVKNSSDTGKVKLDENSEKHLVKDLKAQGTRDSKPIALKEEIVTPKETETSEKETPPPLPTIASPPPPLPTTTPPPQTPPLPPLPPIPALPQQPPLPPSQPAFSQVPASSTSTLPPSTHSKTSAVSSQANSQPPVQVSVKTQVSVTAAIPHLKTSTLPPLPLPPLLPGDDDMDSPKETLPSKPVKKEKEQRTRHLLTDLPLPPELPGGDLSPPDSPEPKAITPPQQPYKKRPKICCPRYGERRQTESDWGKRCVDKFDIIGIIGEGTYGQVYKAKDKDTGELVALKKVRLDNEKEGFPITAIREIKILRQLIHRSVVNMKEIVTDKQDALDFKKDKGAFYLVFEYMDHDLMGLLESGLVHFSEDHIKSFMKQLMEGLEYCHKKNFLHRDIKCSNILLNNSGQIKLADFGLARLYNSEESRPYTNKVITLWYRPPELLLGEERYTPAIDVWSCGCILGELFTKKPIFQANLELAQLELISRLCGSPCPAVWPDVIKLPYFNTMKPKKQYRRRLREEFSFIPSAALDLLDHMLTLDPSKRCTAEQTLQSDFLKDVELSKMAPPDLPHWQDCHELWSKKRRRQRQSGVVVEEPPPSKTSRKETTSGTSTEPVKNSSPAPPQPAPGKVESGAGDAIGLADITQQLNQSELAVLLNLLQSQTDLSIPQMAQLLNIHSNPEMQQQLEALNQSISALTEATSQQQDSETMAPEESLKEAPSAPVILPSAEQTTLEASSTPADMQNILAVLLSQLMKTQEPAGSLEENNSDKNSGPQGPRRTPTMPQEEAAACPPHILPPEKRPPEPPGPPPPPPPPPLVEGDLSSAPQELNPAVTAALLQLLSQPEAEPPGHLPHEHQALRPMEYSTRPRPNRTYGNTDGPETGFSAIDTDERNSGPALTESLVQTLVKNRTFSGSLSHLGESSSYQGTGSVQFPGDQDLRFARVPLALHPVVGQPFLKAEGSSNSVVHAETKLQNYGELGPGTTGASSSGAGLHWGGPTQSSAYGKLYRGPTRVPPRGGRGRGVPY
Sequence (O75909 whole entry partner): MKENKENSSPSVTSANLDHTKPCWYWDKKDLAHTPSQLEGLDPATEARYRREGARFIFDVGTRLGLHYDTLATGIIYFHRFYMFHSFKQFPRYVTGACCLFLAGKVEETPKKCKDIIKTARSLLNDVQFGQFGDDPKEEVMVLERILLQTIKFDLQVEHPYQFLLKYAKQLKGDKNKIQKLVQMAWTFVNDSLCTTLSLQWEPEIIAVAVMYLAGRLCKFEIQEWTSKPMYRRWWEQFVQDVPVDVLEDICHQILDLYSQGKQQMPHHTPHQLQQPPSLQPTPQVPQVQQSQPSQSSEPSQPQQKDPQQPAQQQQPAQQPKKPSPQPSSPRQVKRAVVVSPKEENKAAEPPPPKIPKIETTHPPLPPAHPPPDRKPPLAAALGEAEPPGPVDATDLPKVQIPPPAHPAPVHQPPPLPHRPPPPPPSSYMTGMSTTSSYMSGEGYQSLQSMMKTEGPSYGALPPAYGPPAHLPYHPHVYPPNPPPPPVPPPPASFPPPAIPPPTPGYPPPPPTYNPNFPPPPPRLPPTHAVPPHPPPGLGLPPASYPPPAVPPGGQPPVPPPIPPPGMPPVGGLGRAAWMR
Test: CDK12 degradation in MDA-MB-231 cells by immunoblotting
Format: cell-based
Parameters: Immunoblotting of CDK12 and CDK13 in MDA-MB-231 cells treated with increasing concentrations of ZLC491 for 15 h; endogenous in cells; host or cells: MDA-MB-231
Conditions: supplementary CSV; 0.3 μM

>  <compound>
N#Cc1ccc(N[C@H]2CC[C@H](N(C(=O)NCc3ccccc3)c3ccc(N4CCN(C5CCN(c6ccc7c(c6)C(=O)N(C6CCC(=O)NC6=O)C7=O)C5)CC4)cc3)CC2)nc1 (stereo partly drawn) [4l]

>  <Degradation rates of CDK12 at 0.3 μM>
17%

$$$$
>  <compound>
N#Cc1ccc(N[C@H]2CC[C@H](N(C(=O)NCc3ccccc3)c3ccc(N4CCN(C[C@@H]5CCN(c6ccc7c(c6)C(=O)N(C6CCC(=O)NC6=O)C7=O)C5)CC4)cc3)CC2)nc1 (stereo partly drawn) [4e]

>  <Degradation rates of CDK12 at 0.3 μM>
50%

$$$$
>  <compound>
N#Cc1ccc(N[C@H]2CC[C@H](N(C(=O)NCc3ccccc3)c3ccc(N4CCC5(CC4)CCN(c4ccc6c(c4)C(=O)N(C4CCC(=O)NC4=O)C6=O)CC5)cc3)CC2)nc1 (stereo partly drawn) [4p]

>  <Degradation rates of CDK12 at 0.3 μM>
42%

$$$$

---

Biological target: CDK12 (Homo sapiens)
Experiment: CDK12 degradation in MDA-MB-231 cells by immunoblotting
Format: cell-based
Design: Immunoblotting of CDK12 and CDK13 in MDA-MB-231 cells treated with increasing concentrations of ZLC491 for 15 h; endogenous in cells; host or cells: MDA-MB-231
Settings: MDA-MB-231 cells, 0.3 μM, 15 h, immunoblotting, normalized against α-tubulin
Note to self: use Y only for Protein Degradation (%DMSO control, 0.3 μM) CDK12 readings below 40%; a reading exactly at 40% still gets N.

>  <compound>
N#Cc1ccc(N[C@H]2CC[C@H](N(C(=O)NCc3ccccc3)c3ccc(N4CCN(C(=O)C5CCN(c6ccc7c(c6)C(=O)N(C6CCC(=O)NC6=O)C7=O)CC5)CC4)cc3)CC2)nc1 (some centres unmarked)

>  <class>
Y

$$$$
>  <compound>
N#Cc1ccc(N[C@H]2CC[C@H](N(C(=O)NCc3ccccc3)c3ccc(N4CCC5(CC4)CCN(c4ccc6c(c4)C(=O)N(C4CCC(=O)NC4=O)C6=O)CC5)cc3)CC2)nc1 (some centres unmarked)

>  <class>
N

$$$$
>  <compound>
N#Cc1ccc(N[C@H]2CC[C@H](N(C(=O)NCc3ccccc3)c3ccc(N4CC(CN5CCN(c6ccc7c(c6)C(=O)N(C6CCC(=O)NC6=O)C7=O)CC5)C4)cc3)CC2)nc1 (some centres unmarked)

>  <class>
Y

$$$$
>  <compound>
N#Cc1ccc(N[C@H]2CC[C@H](N(C(=O)NCc3ccccc3)c3ccc(N4CCC(CN5CCN(c6ccc7c(c6)C(=O)N(C6CCC(=O)NC6=O)C7=O)CC5)C4)cc3)CC2)nc1 (some centres unmarked)

>  <class>
Y

$$$$
>  <compound>
N#Cc1ccc(N[C@H]2CC[C@H](N(C(=O)NCc3ccccc3)c3ccc(N4CCN(C5CCN(c6ccc7c(c6)C(=O)N(C6CCC(=O)NC6=O)C7=O)CC5)CC4)cc3)CC2)nc1 (some centres unmarked)

>  <class>
N

$$$$

---

Molecular target: CDK13 (Homo sapiens, UniProt Q14004)
Construct: Immunoblotting of CDK12 and CDK13 in MDA-MB-231 cells treated with increasing concentrations of ZLC491 for 15 h; endogenous in cells; host or cells: MDA-MB-231
Sequence (Q14004 whole entry, one chain of several): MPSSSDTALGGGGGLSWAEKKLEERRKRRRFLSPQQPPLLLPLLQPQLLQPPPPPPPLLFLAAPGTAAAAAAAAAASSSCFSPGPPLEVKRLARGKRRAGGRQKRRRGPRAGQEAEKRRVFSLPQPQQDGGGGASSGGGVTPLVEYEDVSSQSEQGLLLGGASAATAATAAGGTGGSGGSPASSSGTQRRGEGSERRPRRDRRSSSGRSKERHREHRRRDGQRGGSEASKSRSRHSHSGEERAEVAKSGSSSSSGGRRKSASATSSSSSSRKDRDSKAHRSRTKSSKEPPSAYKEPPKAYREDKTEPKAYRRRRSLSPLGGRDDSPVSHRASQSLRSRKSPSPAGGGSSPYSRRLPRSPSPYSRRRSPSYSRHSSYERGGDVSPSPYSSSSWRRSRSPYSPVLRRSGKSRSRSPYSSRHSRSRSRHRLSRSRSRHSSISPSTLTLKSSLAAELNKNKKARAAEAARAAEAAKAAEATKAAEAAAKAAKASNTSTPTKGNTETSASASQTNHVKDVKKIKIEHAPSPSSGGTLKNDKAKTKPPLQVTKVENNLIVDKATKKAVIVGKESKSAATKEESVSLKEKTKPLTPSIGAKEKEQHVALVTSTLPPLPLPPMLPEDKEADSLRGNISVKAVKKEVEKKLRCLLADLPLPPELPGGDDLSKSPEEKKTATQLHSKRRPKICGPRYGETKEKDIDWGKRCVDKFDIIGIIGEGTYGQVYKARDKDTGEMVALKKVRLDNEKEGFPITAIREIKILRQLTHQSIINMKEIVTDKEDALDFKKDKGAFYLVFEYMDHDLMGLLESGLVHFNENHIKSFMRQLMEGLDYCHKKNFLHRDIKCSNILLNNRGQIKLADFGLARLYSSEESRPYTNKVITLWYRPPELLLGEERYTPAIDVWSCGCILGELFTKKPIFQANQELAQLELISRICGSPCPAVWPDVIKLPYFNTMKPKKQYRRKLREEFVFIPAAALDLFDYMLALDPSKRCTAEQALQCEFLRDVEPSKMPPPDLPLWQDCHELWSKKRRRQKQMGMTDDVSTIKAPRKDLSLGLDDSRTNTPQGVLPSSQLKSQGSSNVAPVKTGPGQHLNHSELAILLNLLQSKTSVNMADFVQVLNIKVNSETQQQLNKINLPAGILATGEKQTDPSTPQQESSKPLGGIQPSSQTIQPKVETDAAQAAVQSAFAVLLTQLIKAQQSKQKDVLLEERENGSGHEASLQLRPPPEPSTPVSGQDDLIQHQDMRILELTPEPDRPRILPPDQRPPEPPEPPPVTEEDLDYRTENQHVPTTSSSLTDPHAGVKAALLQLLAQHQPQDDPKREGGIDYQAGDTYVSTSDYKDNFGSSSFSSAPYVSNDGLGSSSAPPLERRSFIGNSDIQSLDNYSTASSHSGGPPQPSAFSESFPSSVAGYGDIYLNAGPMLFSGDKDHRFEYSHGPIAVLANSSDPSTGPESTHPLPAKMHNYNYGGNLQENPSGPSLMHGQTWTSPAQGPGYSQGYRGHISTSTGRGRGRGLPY
Experiment: CDK13 degradation in MDA-MB-231 cells by immunoblotting;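 for Protein Degradation (%DMSO control, 0.3 μM) CDK13: percent of CDK13 protein degraded relative to DMSO control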
Type: cell-based
Details: MDA-MB-231 cells, 0.3 μM, 15 h, immunoblotting, normalized against α-tubulin
property: Protein Degradation (%DMSO control, 0.3 μM) CDK13 (%)

>  <compound>
N#Cc1ccc(N[C@H]2CC[C@H](N(C(=O)NCc3ccccc3)c3ccc(N4CCN(C5CCN(c6ccc7c(c6)C(=O)N(C6CCC(=O)NC6=O)C7=O)CC5)CC4)cc3)CC2)nc1 (some centres unmarked)

>  <measured.on>
CDK13 (Homo sapiens, UniProt Q14004)

>  <unit.label>
%

>  <measurement>
85

$$$$
>  <compound>
N#Cc1ccc(N[C@H]2CC[C@H](N(C(=O)NCc3ccccc3)c3ccc(N4CCC(CN5CCN(c6ccc7c(c6)C(=O)N(C6CCC(=O)NC6=O)C7=O)CC5)C4)cc3)CC2)nc1 (some centres unmarked)

>  <measured.on>
CDK13 (Homo sapiens, UniProt Q14004)

>  <unit.label>
%

>  <measurement>
16

$$$$
>  <compound>
N#Cc1ccc(N[C@H]2CC[C@H](N(C(=O)NCc3ccccc3)c3ccc(N4CCN(C5CCN(c6ccc7c(c6)C(=O)N(C6CCC(=O)NC6=O)C7=O)C5)CC4)cc3)CC2)nc1 (some centres unmarked)

>  <measured.on>
CDK13 (Homo sapiens, UniProt Q14004)

>  <unit.label>
%

>  <measurement>
40

$$$$
>  <compound>
N#Cc1ccc(N[C@H]2CC[C@H](N(C(=O)NCc3ccccc3)c3ccc(N4CCN(CC5CN(c6ccc7c(c6)C(=O)N(C6CCC(=O)NC6=O)C7=O)C5)CC4)cc3)CC2)nc1 (some centres unmarked)

>  <measured.on>
CDK13 (Homo sapiens, UniProt Q14004)

>  <unit.label>
%

>  <measurement>
71

$$$$
>  <compound>
N#Cc1ccc(N[C@H]2CC[C@H](N(C(=O)NCc3ccccc3)c3ccc(N4CCN(C(=O)C5CN(c6ccc7c(c6)C(=O)N(C6CCC(=O)NC6=O)C7=O)C5)CC4)cc3)CC2)nc1 (some centres unmarked)

>  <measured.on>
CDK13 (Homo sapiens, UniProt Q14004)

>  <unit.label>
%

>  <measurement>
38

$$$$
